test system: morningglory (Ipomoea hederacea); assay: Test C preemergence; type: in vivo; conditions: preemergence, Rate 250 g/ha, visual evaluation after 12 to 14 days
Source text: […]
ASSAY METRIC: Plant response rating (0 to 100), Morningglory

Consider the compound shown here: O=C1C(n2ccc(C3CC3)n2)CCN1c1cccc(C(F)(F)F)c1 (stereo not shown) What is its recorded Plant response rating (0 to 100), Morningglory?
30

Data request, read-out Plant response rating (0 to 100), Morningglory, for O=C1C(n2ccc(C3CCCCC3)n2)SCN1c1cccc(C(F)(F)F)c1 (stereo not shown)
0

Could you share which Plant response rating (0 to 100), Morningglory value was measured for CC(C)(C)c1ccn(C2SCN(c3cccc(OC(F)F)c3)C2=O)n1 (stereo not shown) ?
50

Using the record for O=C1C(n2ccc(C3CCC3)n2)SCN1c1cccc(C(F)(F)F)c1 (stereo not shown) , report its Plant response rating (0 to 100), Morningglory.
30

---

system: velvetleaf (Abutilon theophrasti); assay: Test C preemergence; type: in vivo; conditions: Rate 125 g/ha; scale 0 to 100, 0 no effect, 100 complete control
Mark No for Plant response rating, Velvetleaf values under 30, and Yes for everything at or above.

Does the reported Plant response rating, Velvetleaf for CC(C)c1cccc(N2CCC(n3ccc(C(C)(C)C)n3)C2=O)c1 (stereo not drawn) fall at or above the 30 mark?
No

Evaluate CCOc1cccc(N2CCC(n3ccc(C(C)C)n3)C2=O)c1 (stereo not drawn) : Plant response rating, Velvetleaf at minimum 30?
No

Hello, I need to know if CCOc1cc(N2CCC(n3ccc(C(C)(C)C)n3)C2=O)ccc1C (stereo not drawn) has measured Plant response rating, Velvetleaf not below 30. Thanks!
Yes

Determine whether this compound has Plant response rating, Velvetleaf no lower than 30: COC(=O)c1cccc(N2CCC(n3ccc(C(C)(C)C)n3)C2=O)c1 (stereo not drawn)
Yes

Reported Plant response rating, Velvetleaf at or above 30? CCC(C)c1ccn(C2CCN(c3ccc(F)c(C(F)(F)F)c3)C2=O)n1 (stereo not drawn)
No

Tell me whether Plant response rating, Velvetleaf is at least 30 here: CCC(C)c1ccn(C2CCN(c3cccc(OC)c3)C2=O)n1 (stereo not drawn)
No

Textbook exercise: given the entry CC(C)(C)c1ccn(C2CCN(c3cccc([S+]([O-])C(F)(F)F)c3)C2=O)n1 (stereo not drawn) , state whether its Plant response rating, Velvetleaf is greater than or equal to 30.
Yes

# check: Plant response rating, Velvetleaf of CCC(CC)c1ccn(C2CCN(c3ccc(F)c(C(F)(F)F)c3)C2=O)n1 (stereo not drawn) is greater than or equal to 30
No

---

system: corn (Zea mays); assay: Test C preemergence; format: in vivo; details: Rate 125 g/ha; scale 0 to 100, 0 no effect, 100 complete control
Kindly supply the reported Plant response rating, Corn values for the records listed here.
Give your answer as a number; write no unit.

Give Plant response rating, Corn (corn (Zea mays)) of the following molecule: CCC(C)c1ccn(C2CCN(c3cccc(OC)c3)C2=O)n1 (centres unmarked)
10

Record CC(C)(C)c1ccn(C2CCN(c3cccc(SC(F)(F)F)c3)C2=O)n1 (centres unmarked) : what is its Plant response rating, Corn with corn (Zea mays)?
0

Test system corn (Zea mays); read-out Plant response rating, Corn; what value for CC(C)(C)c1ccn(C2CCN(c3cccc(OC(F)F)c3)C2=O)n1 (centres unmarked) ?
20

What measured Plant response rating, Corn is associated with CCC(CC)c1ccn(C2CCN(c3ccc(Cl)c(OC)c3)C2=O)n1 (centres unmarked) on corn (Zea mays)?
0

Lab note: need Plant response rating, Corn with corn (Zea mays) for entry Cc1ccc(N2CCC(n3ccc(C(C)(C)C)n3)C2=O)cc1OCCCl (centres unmarked) , please look it up.
0

Give corn (Zea mays) Plant response rating, Corn for CCOc1cc(N2CCC(n3ccc(C(C)(C)C)n3)C2=O)ccc1C (centres unmarked)
0

What measured Plant response rating, Corn is associated with CCCC(C)c1ccn(C2CCN(c3ccc(Cl)c(OC)c3)C2=O)n1 (centres unmarked) on corn (Zea mays)?
20

API: value(readout=Plant response rating, Corn, system=corn (Zea mays)) for record CCCC(C)c1ccn(C2OCN(c3cccc(OC(F)F)c3)C2=O)n1 (centres unmarked)
10

Value wanted: Plant response rating, Corn (corn (Zea mays)) of entry CC(C)(C)c1ccn(C2CCN(c3cccc([S+]([O-])C(F)(F)F)c3)C2=O)n1 (centres unmarked)
0

Test system corn (Zea mays); read-out Plant response rating, Corn; what value for COC(=O)c1cccc(N2CCC(n3ccc(C(C)(C)C)n3)C2=O)c1 (centres unmarked) ?
0

corn (Zea mays) / Plant response rating, Corn / CCC(CC)c1ccn(C2CCN(c3ccc(F)c(C(F)(F)F)c3)C2=O)n1 (centres unmarked) : value?
50

Please tell me: Plant response rating, Corn of CCCC(C)c1ccn(C2CCN(c3cccc(OCC)c3)C2=O)n1 (centres unmarked) , system corn (Zea mays)?
20

corn (Zea mays) / Plant response rating, Corn / COc1cc(N2CCC(n3ccc(C(C)C)n3)C2=O)ccc1Cl (centres unmarked) : value?
0

Fill in the recorded Plant response rating, Corn for this molecule, with corn (Zea mays) as test system: CC(C)Oc1cccc(N2CCC(n3ccc(C(C)C)n3)C2=O)c1 (centres unmarked)
20

---

system: johnsongrass (Sorghum halepense); assay: Test C preemergence; type: in vivo; conditions: Rate 125 g/ha; scale 0 to 100, 0 no effect, 100 complete control
Excerpt: […]
ASSAY METRIC: Plant response rating, Johnsongrass
Field format: numeric only.

Param item = CC(C)(C)c1ccn(C2CCN(c3cccc(I)c3)C2=O)n1 (stereo not shown) ; retrieve measured Plant response rating, Johnsongrass.
10

What Plant response rating, Johnsongrass value was documented for this molecule, CCCC(C)c1ccn(C2CCN(c3cccc(OC)c3)C2=O)n1 (stereo not shown) ?
0

Fill in: Plant response rating, Johnsongrass of CCCC(C)c1ccn(C2SCN(c3cccc(C(F)(F)F)c3)C2=O)n1 (stereo not shown) is ___
65

Quick one: Plant response rating, Johnsongrass for COc1cc(N2CCC(n3ccc(C(C)C)n3)C2=O)ccc1Br (stereo not shown) ?
20

---

system: crabgrass (Digitaria sanguinalis); assay: Test B preemergence; assay type: in vivo; conditions: preemergence; Rate 125 g/ha; scale of 0 to 100 where 0 is no effect and 100 is complete control; 13 to 15 days
For each entry below, report its Plant response rating, Crabgrass value.
Give a plain numeric answer without units written out.

Please report the recorded Plant response rating, Crabgrass for CCC(CC)c1ccn(C2CCN(c3ccc(Cl)c(OC)c3)C2=O)n1 (stereo not shown) .
100

Endpoint output: Plant response rating, Crabgrass of Cc1ccc(N2CCC(n3ccc(C(C)(C)C)n3)C2=O)cc1C(F)(F)F (stereo not shown) . Value?
0

What value of Plant response rating, Crabgrass has been reported for the following molecule? CC1(c2ccn(C3OCN(c4cccc(C(F)(F)F)c4)C3=O)n2)CC1 (stereo not shown)
0

I would be grateful if you could share the reported Plant response rating, Crabgrass for CCCC(C)c1ccn(C2CCN(c3cccc(OC)c3)C2=O)n1 (stereo not shown) .
0

---

test system: morning glory (Ipomoea hederacea); assay: Test B postemergence; type: in vivo; conditions: Rate 500 g/ha, scale 0 to 100, 0 is no effect, 100 is complete control, 13 to 15 days
ASSAY METRIC: Plant response rating, Morningglory
Answer using only a numeral; do not append any unit.

morning glory (Ipomoea hederacea) / Plant response rating, Morningglory / O=C1C(n2ccc(C3CCC3)n2)SCN1c1cccc(OC(F)F)c1 (centres unmarked) : value?
0

For morning glory (Ipomoea hederacea), provide Plant response rating, Morningglory of CCCC(C)c1ccn(C2OCN(c3cccc(C(F)(F)F)c3)C2=O)n1 (centres unmarked) please.
40

Lab note: need Plant response rating, Morningglory for CCCCC(C)c1ccn(C2OCN(c3cccc(C(F)(F)F)c3)C2=O)n1 (centres unmarked) on morning glory (Ipomoea hederacea), anyone have it?
0

What value of Plant response rating, Morningglory on morning glory (Ipomoea hederacea) does Cc1cc(N2CCC(n3ccc(C(C)(C)C)n3)C2=O)cc(Br)c1C (centres unmarked) have?
0

Form entry - test system: morning glory (Ipomoea hederacea); read-out: Plant response rating, Morningglory; molecule: CCCCC(CCCC)c1ccn(C2SCN(c3cccc(OC(F)(F)F)c3)C2=O)n1 (centres unmarked)
0

I'm curious: which Plant response rating, Morningglory was measured for CCOc1cc(N2CCC(n3ccc(C(C)(C)C)n3)C2=O)ccc1C (centres unmarked) tested on morning glory (Ipomoea hederacea)?
100

GET /values?readout=Plant response rating, Morningglory&system=morning glory (Ipomoea hederacea)&item= CC(C)(C)c1ccn(C2CCN(c3cccc(C(F)(F)F)c3)C2=O)n1 (centres unmarked)
30

Form: Entry = CC(C)(C)c1ccn(C2CCN(c3cc(C(F)(F)F)cc(C(F)(F)F)c3)C2=O)n1 (centres unmarked) | System = morning glory (Ipomoea hederacea) | Plant response rating, Morningglory = ____
20

What is its Plant response rating, Morningglory for morning glory (Ipomoea hederacea)? Entry: CC1(c2ccn(C3OCN(c4cccc(OC(F)(F)F)c4)C3=O)n2)CC1 (centres unmarked)
0

Reported Plant response rating, Morningglory for morning glory (Ipomoea hederacea), given Cc1cc(N2CCC(n3ccc(C(C)(C)C)n3)C2=O)ccc1Cl (centres unmarked) ?
10

Request - read-out Plant response rating, Morningglory | tested on morning glory (Ipomoea hederacea) | molecule CCC(C)c1nn(C2CCN(c3cccc(C(F)(F)F)c3)C2=O)cc1Cl (centres unmarked)
70

GET /values?readout=Plant response rating, Morningglory&system=morning glory (Ipomoea hederacea)&item= Cc1ccc(N2CCC(n3ccc(C(C)(C)C)n3)C2=O)cc1Cl (centres unmarked)
20

API: value(readout=Plant response rating, Morningglory, system=morning glory (Ipomoea hederacea)) for record CCC(C)c1ccn(C2SCN(c3cccc(OC(F)(F)F)c3)C2=O)n1 (centres unmarked)
20

Please tell me: Plant response rating, Morningglory of CCC(C)c1ccn(C2OCN(c3cccc(OC(F)(F)F)c3)C2=O)n1 (centres unmarked) , system morning glory (Ipomoea hederacea)?
0

Test system morning glory (Ipomoea hederacea); read-out Plant response rating, Morningglory; what value for Cc1ccc(N2CCC(n3ccc(C(C)(C)C)n3)C2=O)cc1OCCCl (centres unmarked) ?
100

Could you share what Plant response rating, Morningglory was measured for CCC(CC)c1ccn(C2CCN(c3cccc(OC(C)C)c3)C2=O)n1 (centres unmarked) , tested on morning glory (Ipomoea hederacea)?
30

For the record CC(C)(C)c1ccn(C2CCN(c3ccc(F)c(Cl)c3)C2=O)n1 (centres unmarked) , what value of Plant response rating, Morningglory is listed for morning glory (Ipomoea hederacea)?
0

Given the entry O=C1C(n2ccc(C3CCCCC3)n2)SCN1c1cccc(OC(F)(F)F)c1 (centres unmarked) , what Plant response rating, Morningglory was observed with morning glory (Ipomoea hederacea)?
0

Request body: readout Plant response rating, Morningglory, system morning glory (Ipomoea hederacea), query CCC(C)c1ccn(C2CCN(c3ccc(C)c(OC)c3)C2=O)n1 (centres unmarked) . Return the value.
90

Item: CC(C)(C)c1ccn(C2CCN(c3cccc(C#N)c3)C2=O)n1 (centres unmarked) Test system: morning glory (Ipomoea hederacea) Read-out: Plant response rating, Morningglory Value: ?
0

Short answer please: Plant response rating, Morningglory, morning glory (Ipomoea hederacea), entry CC1(c2ccn(C3OCN(c4cccc(C(F)(F)F)c4)C3=O)n2)CC1 (centres unmarked)
0

GET /values?readout=Plant response rating, Morningglory&system=morning glory (Ipomoea hederacea)&item= CCC(CC)c1ccn(C2CCN(c3cccc(OC)c3)C2=O)n1 (centres unmarked)
50

Short answer please: Plant response rating, Morningglory, morning glory (Ipomoea hederacea), entry CC(C)(C)c1ccn(C2C(=O)N(c3cccc(C(F)(F)F)c3)C[S+]2[O-])n1 (centres unmarked)
0

Requested read-out Plant response rating, Morningglory, target or system morning glory (Ipomoea hederacea), entry CC(C)c1ccn(C2SCN(c3cccc(OC(F)(F)F)c3)C2=O)n1 (centres unmarked)
30

Please provide the recorded Plant response rating, Morningglory for CCCC(C)c1ccn(C2OCN(c3cccc(OC(F)(F)F)c3)C2=O)n1 (centres unmarked) , tested on morning glory (Ipomoea hederacea).
80

What measured Plant response rating, Morningglory is associated with O=C1C(n2ccc(C3CCC3)n2)SCN1c1cccc(C(F)(F)F)c1 (centres unmarked) on morning glory (Ipomoea hederacea)?
40

# query: Plant response rating, Morningglory | item CCC(C)c1ccn(C2CCN(c3cccc(OC(C)C)c3)C2=O)n1 (centres unmarked) | system: morning glory (Ipomoea hederacea)
10

# returns recorded Plant response rating, Morningglory (system: morning glory (Ipomoea hederacea)) for Cc1c(F)cc(N2CCC(n3ccc(C(C)(C)C)n3)C2=O)cc1Br (centres unmarked)
0

Which Plant response rating, Morningglory is reported with morning glory (Ipomoea hederacea) for this entry: CC1(c2ccn(C3SCN(c4cccc(C(F)(F)F)c4)C3=O)n2)CC1 (centres unmarked) ?
60

Provide the documented Plant response rating, Morningglory with morning glory (Ipomoea hederacea) as the system for CCCCC(C)c1ccn(C2SCN(c3cccc(C(F)(F)F)c3)C2=O)n1 (centres unmarked)
0

Lab request: please report Plant response rating, Morningglory under test system morning glory (Ipomoea hederacea) for CSc1cccc(N2CCC(n3ccc(C(C)(C)C)n3)C2=O)c1 (centres unmarked)
0

What is its Plant response rating, Morningglory for morning glory (Ipomoea hederacea)? Entry: CC(C)c1ccn(C2SCN(c3cccc(OC(F)F)c3)C2=O)n1 (centres unmarked)
0

Where do these numbers come from? They come from patent US7138361B2.
